Origin of measurements: ChEMBL document CHEMBL5042471

Biological target: Adenosine receptor A1 (Homo sapiens, UniProt P30542)
Sequence (P30542 whole entry): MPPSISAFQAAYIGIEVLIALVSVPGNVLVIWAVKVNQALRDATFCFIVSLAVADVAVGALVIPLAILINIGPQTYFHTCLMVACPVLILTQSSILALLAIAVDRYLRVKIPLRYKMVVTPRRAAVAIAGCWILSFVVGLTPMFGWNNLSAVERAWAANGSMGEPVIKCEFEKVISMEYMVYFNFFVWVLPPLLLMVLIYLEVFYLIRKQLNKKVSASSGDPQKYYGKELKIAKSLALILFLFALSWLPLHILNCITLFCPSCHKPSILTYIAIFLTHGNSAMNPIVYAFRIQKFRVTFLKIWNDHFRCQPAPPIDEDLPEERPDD
Assay: Binding affinity to N-terminal NLuc tagged human A1 adenosine receptor expressed in Flp-In-CHO cells by competitive binding assay
Type: cell-based
endpoint label: pKd
The meaning of pKd here: minus log10 of the concentration in molar units.

pKd for CCCn1c(=O)c2[nH]c(-c3ccc(OCC(=O)NCCNC(=O)CCNC(=O)CCCCNC(=O)CCCCNC(=O)COc4ccc(/C=C/C5=[N+]6C(=Cc7ccc(-c8cccs8)n7[B-]6(F)F)C=C5)cc4)cc3)nc2n(CCC)c1=O ?
7.47

* * *

Biological target: Adenosine receptor A2a (Homo sapiens)
Sequence (P29274 whole entry): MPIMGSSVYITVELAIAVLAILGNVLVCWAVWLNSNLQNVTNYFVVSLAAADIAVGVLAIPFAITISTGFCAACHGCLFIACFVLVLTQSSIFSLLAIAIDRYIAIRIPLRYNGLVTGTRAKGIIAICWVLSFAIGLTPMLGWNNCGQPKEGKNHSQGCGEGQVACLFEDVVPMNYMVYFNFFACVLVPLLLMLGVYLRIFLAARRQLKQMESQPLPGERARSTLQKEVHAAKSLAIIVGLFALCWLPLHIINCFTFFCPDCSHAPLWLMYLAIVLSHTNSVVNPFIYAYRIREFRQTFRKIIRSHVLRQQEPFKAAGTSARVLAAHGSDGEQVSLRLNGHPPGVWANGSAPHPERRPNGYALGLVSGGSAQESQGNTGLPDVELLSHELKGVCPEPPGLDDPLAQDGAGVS
Assay: Binding affinity to NLuc human A2A adenosine receptor expressed in HEK293-A cells in presence of 1 uM ZM241385 by NanoBRET binding assay
What pKd was measured for each of the following?
The meaning of pKd here: minus log10 of the concentration in molar units.

pKd for CCCn1c(=O)c2[nH]c(C34CC5CC(CC(C5)C3)C4)nc2n(CCCNC(=O)c2ccc(C(=O)NCCNC(=O)CCNC(=O)CCCCCNC(=O)COc3ccc(/C=C/C4=[N+]5C(=Cc6ccc(-c7cccs7)n6[B-]5(F)F)C=C4)cc3)cc2)c1=O ?
7.30

pKd for CCCn1c(=O)c2[nH]c(C34CCC(C(=O)NCCNC(=O)CCNC(=O)CCNC(=O)CCCCCNC(=O)COc5ccc(/C=C/C6=[N+]7C(=Cc8ccc(-c9cccs9)n8[B-]7(F)F)C=C6)cc5)(CC3)CC4)nc2n(CCC)c1=O ?
7.55
